Please go through the items and note down their residual activity.
- assay.target: DDR2 (human) (UniProt Q16832)
- Sequence (Q16832 whole entry, looked up): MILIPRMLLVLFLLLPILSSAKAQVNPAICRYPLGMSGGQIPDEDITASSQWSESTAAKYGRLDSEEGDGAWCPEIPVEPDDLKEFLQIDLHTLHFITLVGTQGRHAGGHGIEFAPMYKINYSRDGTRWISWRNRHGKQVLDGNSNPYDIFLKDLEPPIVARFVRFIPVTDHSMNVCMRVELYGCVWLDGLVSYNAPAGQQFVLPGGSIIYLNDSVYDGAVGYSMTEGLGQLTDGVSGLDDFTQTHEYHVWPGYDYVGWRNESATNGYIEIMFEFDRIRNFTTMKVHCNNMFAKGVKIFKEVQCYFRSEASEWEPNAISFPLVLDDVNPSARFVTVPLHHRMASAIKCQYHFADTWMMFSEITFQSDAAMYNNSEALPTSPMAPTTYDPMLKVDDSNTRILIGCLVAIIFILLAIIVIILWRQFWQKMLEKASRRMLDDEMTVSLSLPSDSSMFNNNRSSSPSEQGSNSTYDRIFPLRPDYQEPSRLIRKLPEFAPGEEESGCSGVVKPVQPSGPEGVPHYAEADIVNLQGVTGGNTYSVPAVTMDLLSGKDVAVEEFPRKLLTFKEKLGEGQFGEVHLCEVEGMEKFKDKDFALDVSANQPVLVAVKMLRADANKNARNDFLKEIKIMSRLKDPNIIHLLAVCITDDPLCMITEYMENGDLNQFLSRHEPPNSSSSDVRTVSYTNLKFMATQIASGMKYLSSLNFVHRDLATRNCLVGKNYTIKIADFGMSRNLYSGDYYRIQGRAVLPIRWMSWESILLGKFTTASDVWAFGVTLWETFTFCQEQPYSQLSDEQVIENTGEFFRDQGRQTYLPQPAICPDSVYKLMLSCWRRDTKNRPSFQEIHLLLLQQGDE
- assay.overview: radiometric filter-binding kinase assay, Kinase HotSpot
- measurement.context: compound 0.5 µM; ATP 10 µM

Consider the worked cases shown below.
{"molecule": "c1ccc(-c2n[nH]c3c2oc2ccccc23)cc1", "assay.target": "DDR2 (human) (UniProt Q16832)", "residual activity": "96%"}
{"molecule": "Nc1ncnc2[nH]nc(Nc3ccc(F)cc3)c12", "assay.target": "DDR2 (human) (UniProt Q16832)", "residual activity": "94.2%"}
{"molecule": "COc1cc2ncnc(Nc3cccc(Cl)c3)c2cc1OC", "assay.target": "DDR2 (human) (UniProt Q16832)", "residual activity": "99.2%"}

// each molecule listed below needs its residual activity
1. CNc1cc2c(Nc3cccc(Br)c3)ncnc2cn1
2. CO[C@H]1CC2CC[C@@H](C)[C@@](O)(O2)C(=O)C(=O)N2CCCC[C@H]2C(=O)OC([C@H](C)C[C@@H]2CC[C@@H](O)[C@H](OC)C2)CC(=O)[C@H](C)/C=C(\C)[C@@H](O)[C@@H](OC)C(=O)[C@H](C)C[C@H](C)/C=C/C=C/C=C/1C (stereo partly specified)

["100%", "95.6%"]

// each molecule listed below needs its residual activity
1. Cc1[nH]c(/C=C2\C(=O)Nc3ccc(S(=O)(=O)N(C)c4cccc(Cl)c4)cc32)c(C)c1C(=O)N1CCN(C)CC1
2. Nc1cccc(-c2cc3c(Oc4cccc(O)c4)ncnc3[nH]2)c1
3. O=c1cc(N2CCOCC2)oc2c1ccc1ccccc12
4. CC(C)N(CCC(=O)c1ccc2ccccc2c1)Cc1ccccc1
5. CC(=O)c1ccc(N2CCOCC2)cc1O
6. COc1ccc(COc2ccc(Cc3cnc(N)nc3N)cc2OC)cc1
7. CCN(CC)CCNC(=O)c1c(C)[nH]c(/C=C2\C(=O)Nc3ccc(Cl)cc32)c1C

["105%", "29.3%", "105%", "92.5%", "104%", "99.6%", "104%"]

* * *

- assay.target: CDK6 CCND1 (human) (UniProt Q00534+P24385)
- Sequence (P24385 whole entry, looked up): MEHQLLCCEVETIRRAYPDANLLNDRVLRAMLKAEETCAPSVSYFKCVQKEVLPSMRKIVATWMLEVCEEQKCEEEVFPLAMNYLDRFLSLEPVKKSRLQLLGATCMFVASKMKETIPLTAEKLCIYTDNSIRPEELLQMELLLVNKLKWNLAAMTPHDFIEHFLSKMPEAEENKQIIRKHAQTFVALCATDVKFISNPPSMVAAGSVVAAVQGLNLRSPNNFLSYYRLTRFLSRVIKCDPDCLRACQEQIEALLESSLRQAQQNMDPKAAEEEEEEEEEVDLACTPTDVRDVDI
- Sequence (Q00534 whole entry, looked up): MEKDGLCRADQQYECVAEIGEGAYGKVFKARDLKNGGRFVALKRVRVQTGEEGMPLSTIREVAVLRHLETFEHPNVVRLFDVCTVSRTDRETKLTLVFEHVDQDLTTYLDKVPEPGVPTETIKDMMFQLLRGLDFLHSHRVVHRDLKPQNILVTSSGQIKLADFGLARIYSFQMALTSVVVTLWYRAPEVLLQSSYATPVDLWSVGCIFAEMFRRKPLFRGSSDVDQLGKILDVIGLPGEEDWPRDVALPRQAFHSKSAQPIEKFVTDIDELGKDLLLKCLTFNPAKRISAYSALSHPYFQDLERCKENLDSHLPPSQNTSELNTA
- assay.overview: radiometric filter-binding kinase assay, Kinase HotSpot
- measurement.context: compound 0.5 µM; ATP 10 µM
recorded.endpoint: residual activity (%)
Answers are plain numbers, in %.

Consider the worked cases shown below.
{"molecule": "CCCC(=O)Oc1ccc2[nH]c(C(=O)c3cc4ccccc4[nH]3)cc2c1", "residual activity (%)": 92.7}
{"molecule": "O=C1Nc2ccc(Cl)cc2/C1=C/c1cc(Cl)c(O)c(Cl)c1", "residual activity (%)": 97}
{"molecule": "CO[C@H]1CC2CC[C@@H](C)[C@@](O)(O2)C(=O)C(=O)N2CCCC[C@H]2C(=O)OC([C@H](C)C[C@@H]2CC[C@@H](O)[C@H](OC)C2)CC(=O)[C@H](C)/C=C(\\C)[C@@H](O)[C@@H](OC)C(=O)[C@H](C)C[C@H](C)/C=C/C=C/C=C/1C (some centres not stated)", "residual activity (%)": 99.8}
{"molecule": "CCN(CC)CCNC(=O)c1c(C)[nH]c(/C=C2\\C(=O)Nc3ccc(Cl)cc32)c1C", "residual activity (%)": 27.8}
{"molecule": "Cc1ccc(NC2=CC(=O)c3sc(C)nc3C2=O)cc1", "residual activity (%)": 101}

// each molecule listed below needs its residual activity
1. COC[C@H]1OC(=O)c2coc3c2[C@@]1(C)C1=C(C3=O)[C@@H]2CCC(=O)[C@@]2(C)C[C@H]1OC(C)=O
2. N#C/C(=C(/N)Sc1ccc(N)cc1)c1ccccc1C(F)(F)F
3. COc1cc2ncnc(Nc3cccc(Cl)c3)c2cc1OC
4. Cc1nc(Nc2ncc(C(=O)Nc3c(C)cccc3Cl)s2)cc(N2CCN(CCO)CC2)n1

[90.1, 98, 92.5, 95.5]

* * *

- assay.target: ABL1 (human) (UniProt P00519)
- assay.overview: radiometric filter-binding kinase assay, Kinase HotSpot
- measurement.context: compound 0.5 µM; ATP 10 µM
recorded.endpoint: residual activity

Consider the worked cases shown below.
{"compound": "O=C(Nc1cccc(Nc2nccc(Nc3cccc(C(F)(F)F)c3)n2)c1)C1CC1", "residual activity": "94.9%"}
{"compound": "O=C1Nc2ccc(Cl)cc2/C1=C/c1cc(Cl)c(O)c(Cl)c1", "residual activity": "84%"}
{"compound": "CC(=O)c1ccc(N2CCOCC2)cc1O", "residual activity": "98.9%"}
{"compound": "Cc1ccc(S(=O)(=O)/C=C/C#N)cc1", "residual activity": "98.7%"}
{"compound": "O=c1cc(N2CCOCC2)oc2c1ccc1ccccc12", "residual activity": "104%"}

// each compound listed below needs its residual activity
1. CCOC(=O)c1c(C)[nH]c(/C=C2\C(=O)Nc3ccccc32)c1C
2. Cc1ccc(NC2=CC(=O)c3sc(C)nc3C2=O)cc1
3. c1ccc(-c2n[nH]c3c2oc2ccccc23)cc1
4. COc1cc2ncnc(Nc3cccc(Cl)c3)c2cc1OC
5. CO[C@H]1CC2CC[C@@H](C)[C@@](O)(O2)C(=O)C(=O)N2CCCC[C@H]2C(=O)OC([C@H](C)C[C@@H]2CC[C@@H](O)[C@H](OC)C2)CC(=O)[C@H](C)/C=C(\C)[C@@H](O)[C@@H](OC)C(=O)[C@H](C)C[C@H](C)/C=C/C=C/C=C/1C (stereo not given in full)
6. Nc1ncnc2c1c(-c1ccc(Oc3ccccc3)cc1)cn2C1CCCC1
7. CCCC(=O)Oc1ccc2[nH]c(C(=O)c3cc4ccccc4[nH]3)cc2c1

1: 95.4%; 2: 90.8%; 3: 99.6%; 4: 61.8%; 5: 103%; 6: 67.4%; 7: 100%

// each compound listed below needs its residual activity
1. COc1ccc(COc2ccc(Cc3cnc(N)nc3N)cc2OC)cc1
2. CCN(CC)C(=O)c1ccc(Nc2nc(OCC3CCCCC3)c3nc[nH]c3n2)cc1
3. Cc1[nH]c(/C=C2\C(=O)Nc3ccc(S(=O)(=O)N(C)c4cccc(Cl)c4)cc32)c(C)c1C(=O)N1CCN(C)CC1

1: 102%; 2: 67.1%; 3: 89.1%

* * *

- assay.target: DAPK2 (human) (UniProt Q9UIK4)
- Sequence (Q9UIK4 whole entry, looked up): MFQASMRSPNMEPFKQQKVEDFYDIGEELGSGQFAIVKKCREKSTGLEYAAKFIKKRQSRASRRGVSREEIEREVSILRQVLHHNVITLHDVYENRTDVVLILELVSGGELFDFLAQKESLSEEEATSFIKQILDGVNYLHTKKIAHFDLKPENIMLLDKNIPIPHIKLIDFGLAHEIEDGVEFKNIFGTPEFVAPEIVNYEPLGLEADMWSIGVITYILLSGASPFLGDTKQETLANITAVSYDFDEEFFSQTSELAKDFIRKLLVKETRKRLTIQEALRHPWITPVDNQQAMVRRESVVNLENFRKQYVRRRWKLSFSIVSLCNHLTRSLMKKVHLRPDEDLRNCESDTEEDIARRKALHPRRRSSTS
- assay.overview: radiometric filter-binding kinase assay, Kinase HotSpot
- measurement.context: compound 0.5 µM; ATP 10 µM
Please go through the items and note down their residual activity.
Give bare numbers, in %.

{"record.smiles": "Cc1ccc(S(=O)(=O)/C=C/C#N)cc1", "number": 100}

// each molecule listed below needs its residual activity
1. O=C1NC(=O)C(c2cn(CCCn3ccnc3)c3ccccc23)=C1Nc1ccccc1
2. CNC(=O)c1cc(Oc2ccc(NC(=O)Nc3ccc(Cl)c(C(F)(F)F)c3)cc2)ccn1

1. 104
2. 111

* * *

- assay.target: PKN1 (human) (UniProt Q16512)
- Sequence (Q16512 whole entry, looked up): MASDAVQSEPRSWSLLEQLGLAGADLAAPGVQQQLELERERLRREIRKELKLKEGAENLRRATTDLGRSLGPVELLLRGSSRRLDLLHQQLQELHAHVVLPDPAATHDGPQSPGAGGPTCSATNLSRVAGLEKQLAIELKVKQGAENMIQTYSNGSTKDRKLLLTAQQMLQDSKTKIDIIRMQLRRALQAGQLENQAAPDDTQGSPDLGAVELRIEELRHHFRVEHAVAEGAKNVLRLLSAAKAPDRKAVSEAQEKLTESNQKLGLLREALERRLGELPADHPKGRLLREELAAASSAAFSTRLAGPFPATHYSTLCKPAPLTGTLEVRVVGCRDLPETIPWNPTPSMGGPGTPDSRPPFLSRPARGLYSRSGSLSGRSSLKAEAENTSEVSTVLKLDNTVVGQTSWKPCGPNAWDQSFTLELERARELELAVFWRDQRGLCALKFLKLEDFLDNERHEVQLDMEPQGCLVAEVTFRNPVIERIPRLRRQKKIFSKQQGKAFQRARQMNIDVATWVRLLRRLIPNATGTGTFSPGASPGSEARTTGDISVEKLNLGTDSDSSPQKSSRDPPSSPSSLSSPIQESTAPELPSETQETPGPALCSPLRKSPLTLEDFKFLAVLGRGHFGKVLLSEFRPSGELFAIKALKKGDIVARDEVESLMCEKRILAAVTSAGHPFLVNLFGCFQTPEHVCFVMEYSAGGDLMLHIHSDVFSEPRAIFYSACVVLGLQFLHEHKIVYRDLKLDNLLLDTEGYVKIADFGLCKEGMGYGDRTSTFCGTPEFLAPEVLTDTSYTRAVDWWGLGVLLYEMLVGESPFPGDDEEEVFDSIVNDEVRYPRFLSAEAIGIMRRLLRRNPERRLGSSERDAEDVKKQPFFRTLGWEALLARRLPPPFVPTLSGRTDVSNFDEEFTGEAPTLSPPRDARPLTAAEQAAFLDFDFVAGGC
- assay.overview: radiometric filter-binding kinase assay, Kinase HotSpot
- measurement.context: compound 0.5 µM; ATP 10 µM
Please go through the items and note down their residual activity.
One number for each entry, in %.

Consider the worked cases shown below.
{"record.smiles": "c1ccc(-c2n[nH]cc2-c2ccnc3ccccc23)nc1", "number": 100}
{"record.smiles": "CCN(CC)CCNC(=O)c1c(C)[nH]c(/C=C2\\C(=O)Nc3ccc(Cl)cc32)c1C", "number": 36.5}

// each compound listed below needs its residual activity
1. COc1ccc2c(c[n+](C)c3c4cc5c(cc4ccc23)OCO5)c1OC
2. CC(=O)c1ccc(N2CCOCC2)cc1O
3. Cc1ccc(S(=O)(=O)/C=C/C#N)cc1
4. CNc1cc2c(Nc3cccc(Br)c3)ncnc2cn1
5. Cc1ccc(NC2=CC(=O)c3sc(C)nc3C2=O)cc1

101
108
92.1
103
98.9

* * *

Please go through the items and note down their residual activity.
- assay.target: UniProtKB Q99683
- Sequence (Q99683 whole entry, looked up): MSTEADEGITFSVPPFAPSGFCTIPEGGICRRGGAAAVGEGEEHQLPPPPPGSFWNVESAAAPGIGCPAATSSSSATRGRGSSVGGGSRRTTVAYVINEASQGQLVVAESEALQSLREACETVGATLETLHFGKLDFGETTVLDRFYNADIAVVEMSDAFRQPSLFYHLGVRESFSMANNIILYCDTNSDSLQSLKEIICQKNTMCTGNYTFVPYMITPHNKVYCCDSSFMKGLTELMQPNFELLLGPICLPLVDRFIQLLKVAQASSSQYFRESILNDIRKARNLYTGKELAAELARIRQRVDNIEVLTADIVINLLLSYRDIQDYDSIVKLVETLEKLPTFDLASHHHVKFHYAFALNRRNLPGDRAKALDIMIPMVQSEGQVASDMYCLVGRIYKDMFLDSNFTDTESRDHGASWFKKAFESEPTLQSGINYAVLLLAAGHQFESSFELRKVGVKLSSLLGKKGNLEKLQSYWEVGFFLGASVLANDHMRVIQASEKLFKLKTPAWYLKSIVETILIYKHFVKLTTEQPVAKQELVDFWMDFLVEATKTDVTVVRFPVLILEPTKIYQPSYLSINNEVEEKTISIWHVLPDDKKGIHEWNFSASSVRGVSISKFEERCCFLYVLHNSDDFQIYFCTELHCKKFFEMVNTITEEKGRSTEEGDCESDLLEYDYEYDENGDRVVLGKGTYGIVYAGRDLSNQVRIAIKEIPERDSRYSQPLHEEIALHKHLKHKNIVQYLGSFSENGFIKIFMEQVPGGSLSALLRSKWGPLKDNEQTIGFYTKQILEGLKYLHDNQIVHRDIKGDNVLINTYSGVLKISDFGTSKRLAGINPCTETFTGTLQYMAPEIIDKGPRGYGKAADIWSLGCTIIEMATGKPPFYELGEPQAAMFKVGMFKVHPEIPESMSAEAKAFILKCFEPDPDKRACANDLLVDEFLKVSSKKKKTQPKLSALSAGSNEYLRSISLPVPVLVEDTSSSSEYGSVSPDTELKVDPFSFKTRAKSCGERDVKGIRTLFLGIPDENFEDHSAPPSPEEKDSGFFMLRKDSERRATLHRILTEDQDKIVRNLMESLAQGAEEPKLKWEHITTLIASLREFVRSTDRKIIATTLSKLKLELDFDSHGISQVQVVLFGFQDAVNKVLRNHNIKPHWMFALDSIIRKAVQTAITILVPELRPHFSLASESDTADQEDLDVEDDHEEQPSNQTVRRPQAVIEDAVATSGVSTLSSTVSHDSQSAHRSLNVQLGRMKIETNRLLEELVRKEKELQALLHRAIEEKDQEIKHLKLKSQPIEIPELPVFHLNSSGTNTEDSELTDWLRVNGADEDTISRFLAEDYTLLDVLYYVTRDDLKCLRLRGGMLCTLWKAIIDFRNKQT
- assay.overview: radiometric filter-binding kinase assay, Kinase HotSpot
- measurement.context: compound 0.5 µM; ATP 10 µM
Answers are plain numbers, in %.

{"compound": "Nc1cccc(-c2cc3c(Oc4cccc(O)c4)ncnc3[nH]2)c1", "number": 94.9}
{"compound": "N#C/C(=C(/N)Sc1ccc(N)cc1)c1ccccc1C(F)(F)F", "number": 108}

// each compound listed below needs its residual activity
1. O=C1NC(=O)C(c2cn(CCCn3ccnc3)c3ccccc23)=C1Nc1ccccc1
2. CCN(CC)C(=O)c1ccc(Nc2nc(OCC3CCCCC3)c3nc[nH]c3n2)cc1
3. Cc1ccc(S(=O)(=O)/C=C/C#N)cc1
4. c1ccc(-c2n[nH]c3c2oc2ccccc23)cc1
5. CO[C@H]1CC2CC[C@@H](C)[C@@](O)(O2)C(=O)C(=O)N2CCCC[C@H]2C(=O)OC([C@H](C)C[C@@H]2CC[C@@H](O)[C@H](OC)C2)CC(=O)[C@H](C)/C=C(\C)[C@@H](O)[C@@H](OC)C(=O)[C@H](C)C[C@H](C)/C=C/C=C/C=C/1C (stereo partly drawn)
6. CCCC(=O)Oc1ccc2[nH]c(C(=O)c3cc4ccccc4[nH]3)cc2c1

1. 105
2. 96.9
3. 100
4. 97.4
5. 107
6. 103

// each compound listed below needs its residual activity
1. N#CC(C#N)=C(N)/C(C#N)=C/c1ccc(O)cc1
2. O=C1NC(=O)/C(=C/c2ccc3c(c2)OC(F)(F)O3)S1

1: 103; 2: 105

// each compound listed below needs its residual activity
1. Nc1ccc2ncnc(NCCc3ccc(Oc4ccccc4)cc3)c2c1
2. CC(C)N(CCC(=O)c1ccc2ccccc2c1)Cc1ccccc1
3. CC(=O)c1ccc(N2CCOCC2)cc1O

[105, 103, 99.4]
